tested on: ACHN renal; test: NCI-60 one-dose screen, 48 h (100 = growth as untreated, 0 = no growth, -100 = all killed); settings: 10 µM unless noted
About 83,000 compounds went through this panel and 20% of them were active in at least one assay; those are over-represented in the sample as a whole. The source made the active and inactive calls. How the source made its calls: active means growth percent below 10; inactive means the rest.
test_readout: growth

- CC(=O)OC[C@H]1OC(Sc2sc(C(=O)c3ccc(Cl)cc3)c(N)c2-c2nc3ccccc3s2)[C@H](OC(C)=O)[C@@H](OC(C)=O)[C@@H]1OC(C)=O (some centres not stated): 67.4% (inactive)
- C=C1C(=O)O[C@H]2[C@H]1CC/C(COC(=O)CSCC(=O)OC/C1=C/CC[C@@]3(C)O[C@H]3[C@H]3OC(=O)C(=C)[C@@H]3CC1)=C\CC[C@@]1(C)O[C@@H]21: 2.35% (active)
- CCOC(=O)c1cn2ncnc(Oc3ccc(NC(=O)NCCN(C)C)c(Cl)c3)c2c1C: 84.5% (inactive)
- CC(=O)CC[C@H]1C(=O)N[C@@H](C(C)C)C(=O)N[C@@H](Cc2cc(O)cc(F)c2)C(=O)N2CCC[C@H](N2)C(=O)O[C@H](/C(C)=C/C=C/C(=O)OC(C)(C)C)C/C=C/C=C/[C@H](O)[C@H](C)[C@H]1O: 62.6% (inactive)
- CCOC(=O)c1c(C)nc2c(c1N)CC(=O)N2Cc1ccc(F)cc1: 95.7% (inactive)
- COc1cc(C(=O)N/N=C/c2cc3cc(OCc4ccccc4)ccc3nc2OC)cc(OC)c1OC: 95.2% (inactive)
- CSc1ccc2c(c1)c(CCN)c(C)n2Cc1ccc(Cl)c(Cl)c1: -85.5% (active)

* * *

Reported growth values follow for various molecules
system: SF-539 CNS; assay: NCI-60 one-dose screen, 48 h (100 = growth as untreated, 0 = no growth, -100 = all killed); settings: 10 µM unless noted
Compounds without any hit were thinned out: in the full panel of roughly 83,000, 20% have a hit.
test_readout: growth (%)

- Cc1nc2cnc(N)c(C#Cc3cncc(C(=O)Nc4ccc(CN5CCN(C)CC5)c(C(F)(F)F)c4)c3)c2nc1C: -23.3
- C(=N/Nc1ncnc2nc[nH]c12)/c1ccccn1: 20.6
- CCN(CC)c1ccc(C2=NN(C(C)=O)C(c3cc(OC)c(OC)c(OC)c3)C2)cc1 (stereo not given): 2.39
- CCCCCCNC(=O)Oc1ccc(/C(=C(\C)c2ccc(Cl)cc2)c2ccc(OCCN3CCCCC3)cc2)cc1: 42.5
- COc1cc(/C=C2\C(=O)Nc3ccc(Br)cc32)cc(OC)c1OC: 85.6
- COc1ccc2nc(NC(=O)c3cccnc3Nc3ccc(S(N)(=O)=O)cc3)sc2c1: 100
- COc1ccc2c(c1)nc(NNC(=O)c1cnccn1)c1cccn12: 23.5
- COc1ccc2c(c1)C(C)Cc1c(ncnc1-n1c(C)nc3ccccc31)N2C (stereo not given): 5.97
- CNc1nc2c(s1)C(c1cccc(F)c1)CC(=O)N2 (stereo not given): 92
- CC1=C(SCCC(=O)OC(C[Se]C2=C(C)C(=O)c3ccccc3C2=O)C(=O)NC(C)(C)C)C(=O)c2ccccc2C1=O (stereo not given): -99.8

* * *

test system: A549/ATCC NSCLC; assay: NCI-60 one-dose screen, 48 h; conditions: 10 µM unless noted
Compounds without any hit were thinned out: in the full panel of roughly 83,000, 20% have a hit. Activity calls are given as the source filed them. Rule for the calls: active = growth percent below 10; inactive = the rest.
Outcomes: t for active, f for inactive

- COc1ccc(C(=S)N2CCN(c3cccc(C)c3)CC2)cc1OC: f
- COc1ccc(/C=C/c2c(C(=O)/C=C/c3ccc(Cl)cc3)c(C)nc3ccccc23)cc1: f
- COc1cc(CCC[P+](c2ccccc2)(c2ccccc2)c2ccccc2)c(OC)c2c1OCO2: f
- O=C(O)c1cn(C2CC2)c2cc(N3CCN(C(=O)Nc4nc(-c5ccccc5)cs4)CC3)c(F)cc2c1=O: t
- CCOC(=O)Nc1ccc(-c2nc(-c3cccc(OCCN4CCOCC4)c3)c(-c3ccnc(Br)c3)[nH]2)cc1: f
- COc1cc(C2CC(c3cccc(Br)c3)=NN2C(C)=O)cc(OC)c1OC (stereo not given): f
- Cc1nc(/N=C(\N)NC(=O)Nc2ccccc2Cl)sc1C: f
- COc1ccc(S(=O)(=O)n2cc(C3OC(c4cc(OC)c(OC)c(OC)c4)=NN3C(C)=O)c3ccccc32)cc1OC (stereo not given): f
- C/C(=C(/c1ccccc1)c1ccc(N2C(=O)c3cccc4c(N5CCN(C)CC5)ccc(c34)C2=O)cc1)c1ccccc1: f
- Cc1ccc(-c2nc(N3CCN(CC(=O)Nc4ccc(Cl)cc4)CC3)c3ccccc3n2)cc1: f
- N#Cc1cccc(NC(=O)c2cc(-c3ccc(F)cc3F)ccc2O)c1: f
- O=C1CN(CCN2CC(=O)N(Cc3ccccc3)C(=O)C2)CC(=O)N1Cc1ccccc1: f
- CCc1cccc2c1S/C(=C/c1ccc(OC)cc1)C2=O: f
- c1ccc(-c2nc3nonc3nc2-c2ccccc2)cc1: f
- Cc1cc(=O)oc2cc(OC(=O)CN3CCN(C)CC3)ccc12: f
- Cc1nc(NC(=O)COc2ccc(/C=C3\Cc4ccc(Cl)cc4C3=O)cc2)sc1C: f
- CC(=O)OC[C@H]1OC(Sc2sc(C(=O)c3ccc(Br)cc3)c(N)c2-c2nc3ccccc3s2)[C@H](OC(C)=O)[C@@H](OC(C)=O)[C@H]1OC(C)=O (stereo not given in full): f
- CCOC(=O)Nc1ccc(C(=O)/C=C/c2ccccc2)cc1: f
- Cc1ccccc1C(=O)NN: f
- CCOC(=O)c1c2c(n(-c3ccc(C#N)cc3)c1-c1ccccc1)C=CCC2: f

* * *

test system: CCRF-CEM leukemia; assay: NCI-60 one-dose screen, 48 h (100 = growth as untreated, 0 = no growth, -100 = all killed); conditions: 10 µM unless noted
Compounds without any hit were thinned out: in the full panel of roughly 83,000, 20% have a hit.
Label 1 (yes) when growth is strictly below 20%; otherwise label 0 (no).

• CCCCCCCNC(=O)CCCNc1ncnc2c1ncn2-c1cccc(C(C)O)c1 (stereo not given) = 1 (yes)
• Cc1onc2c(-c3ccccc3)n[nH]c(=O)c12 = 0 (no)
• COc1ccc(-c2conc2-c2ccccc2)cc1 = 0 (no)
• CCCCNc1nc(NN2C(=O)c3cccc4cccc(c34)C2=O)nc(-n2cnc3ccccc32)n1 = 0 (no)
• Cc1ccc(-c2cnc3sc(C(=O)NCCc4ccccc4)c(C)n23)cc1 = 0 (no)
• CC(C)OC(=O)Nc1ccc(-c2nc(-c3cccc(OCCN4CCOCC4)c3)c(-c3ccnc(Br)c3)[nH]2)cc1 = 1 (yes)
• CC(=O)O.CN1[CH-]N(Cc2ccc(C#N)cc2)c2ccccc21.[Ag+] = 0 (no)
• CCc1ccc(Oc2c(-c3ccc(OCc4ccc(Cl)cc4)cc3O)nn(C)c2C(F)(F)F)cc1 = 1 (yes)
• COc1ccc2c(c1)c(-c1ccc(-c3cn(C)c4ccc(OC)cc34)o1)cn2C = 0 (no)
• O=C1/C(=C/c2ccc(F)cc2)Sc2c(Br)cccc21 = 0 (no)

* * *

tested on: LOX IMVI melanoma; experiment: NCI-60 one-dose screen, 48 h; details: 10 µM unless noted
The panel holds about 83,000 compounds, 20% with a hit somewhere; the sample as a whole holds those more often. Calls of active or inactive are those of the source. Rule for the calls: active = growth percent below 10; inactive = the rest.
Outcomes: 1 for active, -1 for inactive

• COc1cc(C2CC(c3cccc(Br)c3)=NN2C(C)=O)cc(OC)c1OC (stereo unspecified) = -1
• CN(C)CCS(=O)(=O)Nc1cc(-c2ccc3ncc(C#N)c(Nc4ccc(F)c(Cl)c4)c3c2)cnc1Cl = 1
• COc1ccc(C(=O)C(C)C)c2ccccc12 = -1
• Cc1ccc(NC2=C(Cl)C(=O)c3nc(C)ccc3C2=O)cc1 = 1
• O=c1c2cc(C(F)(F)F)ccc2sc2c(NCCCNCCO)nc3ccccc3c12 = 1
• COc1cccc(/C=C2\C=C(c3ccccc3)N(Cc3ccccc3)C2=O)c1 = -1
• O=C(N=c1oc2ccccc2cc1-c1cc2ccccc2[nH]1)Nc1ccc(Cl)cc1 = -1
• COc1ccc(C(=O)n2nc(-c3ccccc3)nc2N)cc1OC = -1
• CC(=O)c1ccc(Nc2nc(C(C)=O)c(C)s2)cc1 = -1
• COc1ccccc1/C=C1\Oc2cc(OCCN3CCC(Cc4ccccc4)CC3)ccc2C1=O = -1
• N#Cc1c(-c2ccccc2)nc(SCC(=O)Nc2nc(-c3ccc(Cl)cc3)cs2)[nH]c1=O = -1
• NC[C@@H]1O[C@H](O[C@@H]2[C@@H](CO)OC(O[C@@H]3[C@@H](O)[C@H](N)C[C@H](N)[C@H]3OC3O[C@H](CN)[C@@H](O)[C@H](O)[C@H]3N)[C@@H]2O)[C@H](N)[C@@H](O)[C@@H]1O (stereo partly specified) = -1
• Cc1nc(/N=C(\N)NC(=O)Nc2cccc(Cl)c2)sc1C = -1
• CCc1ccccc1-n1c(N)c(C#N)c(-c2ccc(Cl)cc2)c(C#N)c1=O = -1
• CCc1ccc(Oc2c(-c3ccc(OCc4ccc(Cl)cc4)cc3O)n[nH]c2C(F)(F)F)cc1 = 1
• CC(=O)O.CN1[CH-]N(Cc2ccc(C#N)cc2)c2ccccc21.[Ag+] = -1
• Nc1nc(-c2cccc3ccccc23)cc2ccccc12 = -1
• COc1ccc(-c2nn(C(=O)c3cc(OC)c(OC)c(OC)c3)c3cc(N)ccc23)cc1 = -1
• N#Cc1ccc(NC(=O)c2sc3nc4c(cc3c2N)C(=O)CCC4)cc1 = -1
• CCCCCCn1c(-c2ccc(C(=O)O/N=C(\N)c3ccc4ccccc4c3)cc2)nc(-c2ccccc2)c1-c1ccccc1 = 1
• CCCCN(C)N=Nc1ccc(C(N)=O)cc1 = -1
